Attribution: paper PMC11292626

test method notes: Aqueous solubility at different pHs
Format: physicochemical
conditions used: pH 9.1, aqueous buffer, thermodynamic from solid; 0.1 M NH4HCO3; 25 °C for 4 h; read-out: aqueous solubility pH 9.1
recorded metric: solubility at 4 h (µM)
Numbers only, in µM.

molecule="Cl.Fc1ccc2[nH]ccc2c1 [Compound 11, 5-fluoroindole hydrochloride]" unit_annotation=µM obs_value=1110

**Query** Which measured solubility at 4 h value corresponds to Fc1ccc2[nH]ccc2c1 [Compound 1, 5-Fluoroindole] ?
**Result** 2.2

----------
test method notes: Metabolic stability in rat liver microsomes
Format: in vitro ADME
conditions used: rat, pH 7.4, read-out: metabolic stability t1/2 (half-life)
recorded metric: half-life (min)
Numbers only, in min.

**Query** Which half-life is listed for Cl.Fc1ccc2[nH]ccc2c1 [Compound 11, 5-fluoroindole hydrochloride] ?
**Result** 12

----------
test method notes: Cellular viability (MTT and neutral red uptake), Vero
Format: cell-based
conditions used: African green monkey, Vero cells; 72 h of exposure; MTT and neutral red assays
recorded metric: CC50 at 72 h

**Query** Entry Fc1ccc2[nH]ccc2c1 [Compound 1, 5-Fluoroindole] : reported CC50 at 72 h = ?
**Result** > 20 µM

----------
test method notes: In vivo absorption assay: plasma concentration after gavage
conditions used: female, CF-1, mouse, in vivo, 400 mg/kg, plasma concentration, mean ± SD, mice, gavage 400 mg/kg, 30 min
recorded metric: concentration at 30 min

**Query** Param item = Fc1ccc2[nH]ccc2c1 [Compound 1, 5-Fluoroindole] ; retrieve measured concentration at 30 min.
**Result** 79.4 µM

----------
test method notes: In vivo absorption assay: plasma concentration after gavage
conditions used: female, CF-1, mouse, in vivo, po, 400 mg/kg, plasma concentrations (range), mice, oral 400 mg/kg, 30 min; joint range over 5-FI and 5-FI.HCl
recorded metric: concentration at 30 min

**Query** Data request, read-out concentration at 30 min, for Fc1ccc2[nH]ccc2c1 [Compound 1, 5-Fluoroindole]
**Result** 79 to 82 µM

----------
test method notes: Metabolic stability in rat liver microsomes
Format: in vitro ADME
conditions used: pH 7.4, read-out: metabolic stability t1/2 (half-life)
recorded metric: half-life

**Query** What half-life value was documented for this compound, "Fc1ccc2[nH]ccc2c1" ?
**Result** 2.4 h

----------
test method notes: Metabolic stability in rat liver microsomes
Assay type: in vitro ADME
conditions used: rat, pH 7.4, read-out: metabolic stability Clint (intrinsic clearance)
recorded metric: CLint scaled (mL/min/kg)
Answers are plain numbers, in mL/min/kg.

**Query** Quick one: CLint scaled for Cl.Fc1ccc2[nH]ccc2c1 [Compound 11, 5-fluoroindole hydrochloride] ?
**Result** 48

----------
test method notes: Aqueous solubility at different pHs
Assay type: physicochemical
conditions used: phosphate-buffered saline, pH 7.4, aqueous buffer, thermodynamic from solid; PBS; 25 °C for 4 h; read-out: aqueous solubility pH 7.4
For each record, write down the corresponding solubility at 4 h.
Give bare numbers, in µM.

molecule=Fc1ccc2[nH]ccc2c1 recorded_metric="solubility at 4 h" unit_annotation=µM obs_value=3.5

**Query** If you can, please state the reported solubility at 4 h value of Cl.Fc1ccc2[nH]ccc2c1 [Compound 11, 5-fluoroindole hydrochloride] .
**Result** 600

----------
test method notes: Parallel artificial membrane permeability assay (PAMPA)
Type: in vitro ADME
conditions used: pH 7.4, 5 h
recorded metric: Papp at 5 h, 100 μM (×10⁻⁶ cm/s)
Answers are plain numbers, in ×10⁻⁶ cm/s.

**Query** Item "Fc1ccc2[nH]ccc2c1" has what recorded Papp at 5 h, 100 μM?
**Result** 2.4

----------
test method notes: In vivo absorption assay: plasma concentration after gavage
conditions used: female, CF-1, mouse, in vivo, 400 mg/kg, plasma concentration, mean ± SD, mice, gavage 400 mg/kg, 15 min
recorded metric: concentration at 15 min (µM)
Numbers only, in µM.

**Query** Can you share its concentration at 15 min? I mean this compound: "Fc1ccc2[nH]ccc2c1"
**Result** 45.2
